- TESTED_SYSTEM: T1, recombinant human CTLA-4 (human, UniProt P16410 36-161, limits assumed)
- T1 construct: also called CTLA4 antigen
- T1 sequence (looked up): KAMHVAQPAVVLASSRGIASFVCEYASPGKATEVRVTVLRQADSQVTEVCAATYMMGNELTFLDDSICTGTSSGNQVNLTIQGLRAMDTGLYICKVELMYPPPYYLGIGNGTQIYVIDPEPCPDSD
- ASSAY_NOTES: Octet (BLI), 1:1 binding model
QUANTITY_NAME: kon (M⁻¹ s⁻¹)

>>> value_reported("GBD008-S019 (antibody, V domains shown, Heavy chain-only antibody (VHH-Fc), no light chain; also called GBD008-5019) VH: QVQLVESGGGLVQPGGSLTLSCAASGFTFSSYTMAWYRQAPGKEREVVAGISRSGGTTNYGDSVKGRFTISRDNAKNTVYLQMNSLKPEDTAVYYCRAVSDYWGQGTQVTVSS")
263000
>>> value_reported("GBD008-hS005-3-2 (antibody, V domains shown, Humanized heavy chain-only antibody (VHH-Fc), no light chain) VH: EVQLVESGGGLVQPGGSLRLSCAASGRTASSNAMAWFRQAPGKEREFVSAISATGGLTAYADSVKGRFTISRDNSKNTLYLQMNSLRAEDTAVYYCAVGRERWYLRHTENEYDYWGQGTLVTVSS")
214000
>>> value_reported("GBD008-hS004-5 (antibody, V domains shown, Humanized heavy chain-only antibody (VHH-Fc), no light chain) VH: EVQLVESGGGLVQPGGSLRLSCAASGRTFSSYDMGWFRQAPGKEREFVAAISWGGVNTYYADSVKGRFTISRDNAKNTLYLQMNSLRAEDTAVYYCARGSAPYSSSRSSAQETYAQWGQGTLVTVSS")
241000
>>> value_reported("GBD008-hS005-3 (antibody, V domains shown, Humanized heavy chain-only antibody (VHH-Fc), no light chain) VH: EVQLVESGGGLVQPGGSLRLSCAASGRTASSNAMAWVRQAPGKEREFVSAISATGGLTAYADSVKGRFTISRDNSKNTLYLQMNSLRAEDTAVYYCAVGRERWYLRHTENEYDYWGQGTLVTVSS")
189000
>>> value_reported("GBD008-hS019-4 (antibody, V domains shown, Humanized heavy chain-only antibody (VHH-Fc), no light chain) VH: EVQLLESGGGLVQPGGSLRLSCAASGFTFSSYTMAWYRQAPGKEREVVAGISRSGGTTNYGDSVKGRFTISRDNSKNTLYLQMNSLRAEDTAVYYCRAVSDYWGQGTLVTVSS")
302000
>>> value_reported("GBD008-S004 (antibody, V domains shown, Heavy chain-only antibody (VHH-Fc), no light chain) VH: EVQLVESGGGLVQAGGSLRLSCLASGRTFSSYDMGWFRQAPGKEREFVAAISWGGVNTYYADSVKGRFTISRDNAKNTVYLQMNSLKPEDTAVYYCARGSAPYSSSRSSAQETYAQWGQGTQVTVSS")
173000

# credit: patent EP4628505A1
